Give measured GI50 for each item. Keep answers brief.
- Test system: DU-145
- ASSAY_COMMENT: NCI tumour cell line growth inhibition, 48 h
Activity calls are given as the source filed them. No stated cut-off is given here; in the data, active = GI50 up to about 1.1 µM and inactive = higher.

{"columns": ["COMPOUND", "RESULT"],
 "data": [
  ["CCOC(=O)c1c(C)n(Cc2ccccc2)c2c1cc(O)c1[nH]c3c(c12)CCCC3", "12.6 µM (inactive)"]
]}

For each of the compounds below, note its GI50.
1. N#CC1=C(N)Nc2nc3ccccc3n2C1c1ccccc1 (stereo not drawn)
2. S=C1CC(c2ccccc2)Sc2cc(Cl)ccc2N1 (stereo not drawn)
3. CC(C)(C)OC(=O)N(O)[C@@H]1C=C[C@H](n2cnc3c(N)ncnc32)C1

1. 35.3 µM (inactive)
2. > 100 µM (inactive)
3. > 100 µM (inactive)
